# credit: patent US20250205342A1

Target: IRAK4 (Homo sapiens, UniProt Q9NWZ3)
Assay: hPBMC IRAK4 degradation flow assay (monocytes)
Assay type: cell-based
Design: endogenous in cells; host or cells: human PBMCs (monocytes, CD14 positive gate)
Conditions: CD14 positive monocytes, 20 h, read-out: hPBMC monocyte DC50 at 20 h
DC50 values by entry

Some entries whose results are on file:
{"columns": ["recordSmiles", "measuredMetric", "valueObserved"],
 "data": [
  ["COC(=O)Cn1cc(NC(=O)c2cccc(-c3cncc4c(CCCCCCCCCNC[C@H]5CC[C@H](n6cc7cc(NC(=O)c8cccc(C(F)(F)F)n8)c(C(C)(C)O)cc7n6)CC5)cccc34)c2)ccc1=O", "DC50", "1 to 10 µM"],
  ["COC(=O)Cn1cc(NC(=O)c2cccc(-c3cncc4cc(CCCCCCCCCNC[C@H]5CC[C@H](n6cc7cc(NC(=O)c8cccc(C(F)(F)F)n8)c(C(C)(C)O)cc7n6)CC5)ccc34)c2)ccc1=O", "DC50", "> 10 µM"],
  ["COC(=O)Cn1cc(NC(=O)c2cccc(-c3cncc4cc(CCCCCCNC[C@H]5CC[C@H](n6cc7cc(NC(=O)c8cccc(C(F)(F)F)n8)c(C(C)(C)O)cc7n6)CC5)ccc34)c2)ccc1=O", "DC50", "1 to 10 µM"],
  ["CC(C)(O)c1cc2nn([C@H]3CC[C@H](CNCCCCCCCCCc4cccc5c(-c6cccc(C(=O)Nc7ccc(=O)n(CC(=O)O)c7)c6)cncc45)CC3)cc2cc1NC(=O)c1cccc(C(F)(F)F)n1", "DC50", "> 10 µM"]
]}

Switching to the query record.
Request: Provide value of DC50 for this record tested with IRAK4 (Homo sapiens, UniProt Q9NWZ3): O=C(O)Cn1cc(NC(=O)c2cccc3c2ccn3CCCNC[C@H]2CC[C@H](n3cc(NC(=O)c4cnn5ccc(N6C[C@H]7C[C@@H]6CO7)nc45)c(C(F)F)n3)CC2)ccc1=O
Response: > 10 µM

----------
Target: IRAK4 (Homo sapiens, UniProt Q9NWZ3)
Sequence (Q9NWZ3 1-460): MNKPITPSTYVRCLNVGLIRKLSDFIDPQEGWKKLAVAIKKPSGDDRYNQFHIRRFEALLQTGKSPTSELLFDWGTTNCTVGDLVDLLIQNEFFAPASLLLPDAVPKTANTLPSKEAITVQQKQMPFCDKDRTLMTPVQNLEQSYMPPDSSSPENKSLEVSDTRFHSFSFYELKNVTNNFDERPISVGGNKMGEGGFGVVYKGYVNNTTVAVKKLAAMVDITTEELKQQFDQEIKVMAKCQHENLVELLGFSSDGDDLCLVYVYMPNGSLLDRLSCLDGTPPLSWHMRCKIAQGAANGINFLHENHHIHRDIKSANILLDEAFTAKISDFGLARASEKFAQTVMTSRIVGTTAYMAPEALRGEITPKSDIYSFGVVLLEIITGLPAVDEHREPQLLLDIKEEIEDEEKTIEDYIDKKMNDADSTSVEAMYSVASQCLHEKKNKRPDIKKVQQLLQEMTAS
Experiment: hPBMC IRAK4 degradation flow assay (monocytes)
Format: cell-based
Set-up: endogenous in cells; host or cells: human PBMCs (monocytes, CD14 positive gate)
Details: CD14 positive monocytes, 20 h, read-out: hPBMC monocyte DC50 at 20 h
measuredMetric: DC50

Request: Endpoint output: DC50 of CC(C)(O)c1cc2nn([C@H]3CC[C@H](CNCCCCCCn4ccc5c(C(=O)Nc6ccc(=O)n(CC(=O)O)c6)cccc54)CC3)cc2cc1NC(=O)c1cccc(C(F)(F)F)n1 . Value?
Response: > 10 µM

Request: Please answer likewise for CCOC(=O)Cn1cc(NC(=O)c2cc(CCCCCCCCCNC[C@H]3CC[C@H](n4cc5cc(NC(=O)c6cccc(C(F)(F)F)n6)c(C(C)(C)O)cc5n4)CC3)cc(-c3cccnc3)c2)ccc1=O
Response: 1 to 10 µM

Request: Likewise for COC(=O)Cn1cc(NC(=O)c2cccc(-c3cncc4c(CCCCCCNC[C@H]5CC[C@H](n6cc7cc(NC(=O)c8cccc(C(F)(F)F)n8)c(C(C)(C)O)cc7n6)CC5)cccc34)c2)ccc1=O ?
Response: > 10 µM

----------
Target: IRAK4 (Homo sapiens)
Experiment: hPBMC IRAK4 degradation flow assay (monocytes)
Assay type: cell-based
Parameters: endogenous in cells; host or cells: human PBMCs (monocytes, CD14 positive gate)
Conditions: CD14 positive monocytes, 20 h, read-out: hPBMC monocyte DC50 at 20 h
# DC50 listing for each entry below

{"columns": ["recordSmiles", "DC50"],
 "data": [
  ["CC(C)(O)c1cc2nn([C@H]3CC[C@H](CNCCCCCCc4cc(C(=O)Nc5ccc(=O)n(CC(=O)O)c5)cc(-c5cccnc5)c4)CC3)cc2cc1NC(=O)c1cccc(C(F)(F)F)n1", "> 10 µM"],
  ["CCOC(=O)Cn1cc(NC(=O)[C@H]2CCCN(c3cncc(OCCOCCOCCNC[C@H]4CC[C@H](n5cc(NC(=O)c6cnn7ccc(N8C[C@H]9C[C@@H]8CO9)nc67)c(C(F)F)n5)CC4)c3)C2)ccc1=O", "1 to 10 µM"],
  ["COc1cc(-c2ccc(F)c(CCCCCCCCCNC[C@H]3CC[C@H](n4cc(NC(=O)c5cnn6ccc(N7C[C@H]8C[C@@H]7CO8)nc56)c(C(F)F)n4)CC3)c2)ccc1C(=O)Nc1ccc(=O)n(CC(=O)O)c1", "> 10 µM"]
]}

Request: I'd like to know its DC50. The compound in question is CCOC(=O)Cn1cc(NC(=O)[C@H]2CCCN(c3cncc(NCCOCCOCCOCCOCCNC[C@H]4CC[C@H](n5cc6cc(NC(=O)c7cccc(C(F)(F)F)n7)c(OC)cc6n5)CC4)c3)C2)ccc1=O
Response: 1 to 10 µM

Request: CCOC(=O)Cn1cc(NC(=O)[C@H]2CCCN(c3cncc(NCCNC[C@H]4CC[C@H](n5cc(NC(=O)c6cnn7ccc(N8C[C@H]9C[C@@H]8CO9)nc67)c(C(F)F)n5)CC4)c3)C2)ccc1=O
Response: > 10 µM

----------
Biological target: IRAK4 (Homo sapiens)
Assay: hPBMC IRAK4 degradation flow assay (monocytes)
Format: cell-based
Parameters: endogenous in cells; host or cells: human PBMCs (monocytes, CD14 positive gate)
Conditions: CD14 positive monocytes, 20 h, read-out: hPBMC monocyte DC50 at 20 h
Protocol: In the hPBMC IRAK4 degradation flow assay, frozen PBMCs were thawed into RPMI with 10% FBS and allowed to recover. On the same day as thawed, PBMCs were plated in 96 well plate, 90 μL per well. […] Twenty hour dose curves were calculated using a 4 parameter logistic regression curve fit, no constraints (Top doses were removed if hook effects were observed and the bottom was constrained to 0). […]
# reported DC50; entries follow

Previously resolved entries follow.
{"columns": ["compound", "DC50"],
 "data": [
  ["CCOC(=O)Cn1cc(NC(=O)[C@H]2CCCN(c3cncc(C#CCOC4CCN(C[C@H]5CC[C@H](n6cc7cc(NC(=O)c8cccc(C(F)(F)F)n8)c(OC)cc7n6)CC5)CC4)c3)C2)ccc1=O [Compound I-22]", "< 0.1 µM"],
  ["O=C(O)Cn1cc(NC(=O)[C@H]2CCCN(c3cncc(NCCOCCOCCNC[C@H]4CC[C@H](n5cc(NC(=O)c6cnn7ccc(N8C[C@H]9C[C@@H]8CO9)nc67)c(C(F)F)n5)CC4)c3)C2)ccc1=O [Compound I-2]", "> 10 µM"],
  ["COc1cc2nn([C@H]3CC[C@H](CNCCc4cncc(N5CCC[C@H](C(=O)Nc6ccc(=O)n(CC(=O)O)c6)C5)c4)CC3)cc2cc1NC(=O)c1cccc(C(F)(F)F)n1 [Compound I-26]", "> 10 µM"]
]}

Request: Return reported DC50; argument: CC(C)(O)c1cc2nn([C@H]3CC[C@H](CNCCCCCCc4cccc5c(-c6cccc(C(=O)Nc7ccc(=O)n(CC(=O)O)c7)c6)cncc45)CC3)cc2cc1NC(=O)c1cccc(C(F)(F)F)n1 [Compound I-51]
Response: > 10 µM

Request: Now the same for O=C(O)Cn1cc(NC(=O)[C@H]2CCCN(c3cncc(C4CCN(C[C@H]5CC[C@H](n6cc(NC(=O)c7cnn8ccc(N9C[C@H]%10C[C@@H]9CO%10)nc78)c(C(F)F)n6)CC5)CC4)c3)C2)ccc1=O [Compound I-12]
Response: > 10 µM

----------
Target: IRAK4 (Homo sapiens)
Test: IRAK4 degradation in OCI-LY10 (MSD, Meso Scale Discovery)
Assay type: cell-based
Set-up: endogenous in cells; host or cells: OCI-LY10
Conditions: OCI-LY10 cells, 24 h
Attribute: DC50

Here are 2 compounds together with their reported answers.
{"columns": ["compound", "studyTarget", "DC50"],
 "data": [
  ["CCOC(=O)Cn1cc(NC(=O)[C@H]2CCCN(c3cncc(CCCCNC[C@H]4CC[C@H](n5cc6cc(NC(=O)c7cccc(C(F)(F)F)n7)c(OC)cc6n5)CC4)c3)C2)ccc1=O [Compound I-31]", "IRAK4 (Homo sapiens)", "> 10 µM"],
  ["CC(C)(O)c1cc2nn([C@H]3CC[C@H](CNCCCCCCCCCc4cncc(-c5cccc(C(=O)Nc6ccc(=O)n(CC(=O)O)c6)c5)c4)CC3)cc2cc1NC(=O)c1cccc(C(F)(F)F)n1 [Compound I-84]", "IRAK4 (Homo sapiens)", "> 10 µM"]
]}

Request: Fill blank: measured DC50 of the compound O=C(O)Cn1cc(NC(=O)[C@H]2CCCN(c3cncc(NCCOCCOCCNC[C@H]4CC[C@H](n5cc(NC(=O)c6cnn7ccc(N8C[C@H]9C[C@@H]8CO9)nc67)c(C(F)F)n5)CC4)c3)C2)ccc1=O [Compound I-2] is ____.
Response: > 10 µM
